Cited source for all entries: PubChem BioAssay (EPA / NIEHS)

# Read-out: Human Leukocyte Antigen - DR isotype (HLADR), HLA-DRA (gene 3122)
# assayInfo: BSK_CASM3C_HLADR: BioMAP Diversity Plus: CASM3C Assay for Human Leukocyte Antigen - DR isotype (HLADR) Biomarker Activity (AID 2283043);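 further: cell-surface HLA-DR protein level quantified by ELISA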
# experimentalParameters: primary human coronary artery smooth muscle cells; actives raise or lower the signal
Active and inactive are the calls of the source. How the source made its calls: active means hit-call score of the fitted dose curve at least 0.9, where 1 is the maximum; inactive means score below 0.9.
Possible outcomes: Y (active), N (inactive)

{"compound": "CCn1c2ccccc2c2cc(N)ccc21", "classification": "N"}
{"compound": "CCCCCCCCCC=O", "classification": "N"}
{"compound": "O=[N+]([O-])c1cc(C(F)(F)F)ccc1Cl", "classification": "N"}
{"compound": "CC(C)Oc1ccccc1O", "classification": "N"}
{"compound": "CC1COc2ccccc2N1C(=O)C(Cl)Cl (configuration not stated)", "classification": "Y"}
{"compound": "Nc1cc([N+](=O)[O-])ccc1Cl", "classification": "N"}
{"compound": "CC1CCC(C(C)CS)CC1S (configuration not stated)", "classification": "Y"}
